In this section, each of the sequences is paired with its reported IC50.
target: HLA-A*02:01; assay: IEDB peptide-MHC binding, cellular MHC/competitive/fluorescence; bounds were set here for any values at or beyond the usual limits of such assays; conditions: source organism: Vaccinia virus WR
Observable: IC50

> print(dat)
    residue.string  tested.target  result.value
 1      QLPMEDNSDI    HLA-A*02:01       38.5 µM
 2      KVTVPTNDHI    HLA-A*02:01       13.2 µM
 3       KTEHCDDFM    HLA-A*02:01       16.1 µM
 4      IMKTPGNTDA    HLA-A*02:01       9.42 µM
 5      EQTSVFSATV    HLA-A*02:01       28.6 µM
 6       STTGEWPLI    HLA-A*02:01       8.57 µM
 7      IQYRQQLELA    HLA-A*02:01       ≥ 70 µM
 8      EMQLKIDKLT    HLA-A*02:01       55.9 µM
 9      ELKTQSPDVL    HLA-A*02:01         61 µM
10       PVIVPDIKL    HLA-A*02:01       52.8 µM
11      RILSEKRKDT    HLA-A*02:01       48.7 µM
12       EVVVFGEAV    HLA-A*02:01       13.4 µM
13       KLVETGFVI    HLA-A*02:01       14.3 µM
14       SVKYYGRST    HLA-A*02:01       25.9 µM
15      LTQVKELGIA    HLA-A*02:01       39.2 µM
16      CISQHQHLAI    HLA-A*02:01         11 µM
17      KQRTPGIITI    HLA-A*02:01       53.2 µM
18       IISTDQDTM    HLA-A*02:01       5.87 µM
19      SVNKFKFGAA    HLA-A*02:01       ≥ 70 µM
20      DTIAHINTLI    HLA-A*02:01       10.3 µM
21      SARALKAYFT    HLA-A*02:01       58.4 µM

----------
molecular target: HLA-A*68:01; experiment: IEDB peptide-MHC binding, cellular MHC/competitive/fluorescence; bounds were set here for any values at or beyond the usual limits of such assays; details: source organism: Mammarenavirus juninense
Observable: IC50

> print(dat)
   residue.string  tested.target  result.value
1       ACQEAVKLK    HLA-A*68:01       ≥ 70 µM

----------
biological target: HLA-A*02:06; test: IEDB peptide-MHC binding, purified MHC/competitive/radioactivity; bounds were set here for any values at or beyond the usual limits of such assays; details: source organism: Hepacivirus hominis
pIC50: −log10 of the molar value.
Binary call on pIC50: y from 7 upward, n beneath that.

> print(dat)
    residue.string  tested.target  label
 1       MLLIAQAEA    HLA-A*02:06      n
 2      MILMTHFFSI    HLA-A*02:06      n
 3      FMLCLLLLSV    HLA-A*02:06      n
 4       LIQDWIPPL    HLA-A*02:06      y
 5       VLMTHFFSV    HLA-A*02:06      y
 6      MMMNWSPTTA    HLA-A*02:06      n
 7      LLALLSCISV    HLA-A*02:06      y
 8      LLLSTTEWQV    HLA-A*02:06      y
 9       VMWKCLIRL    HLA-A*02:06      n
10      MLVNGDDLVV    HLA-A*02:06      n
11       KLLPQLPGV    HLA-A*02:06      y
12      LLMCAVHPEL    HLA-A*02:06      n
13      VLMVDSFDPV    HLA-A*02:06      y
14      GLLYFILFFV    HLA-A*02:06      n
15       LLSTTEWQV    HLA-A*02:06      n
16       MLCLLLLSV    HLA-A*02:06      n
